Biological target: T1, P3A
T1 chain: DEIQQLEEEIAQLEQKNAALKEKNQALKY
Test: two-hybrid library CCNG1;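 further: natural log of median RNA to DNA barcode read ratio; higher means stronger binding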
Assignment: determine reported interaction score for the given binders.

>>> recorded_value("DKNAQLKEENAALEEKIQQLKEKIQALKY [P10A]")
0.616
>>> recorded_value("DKIAQLKEKNAALKEKNQQLKEKIQALKY [P2A]")
-1.21
>>> recorded_value("DEIQQLEEEIAQLEQKNAALKEKNQALKY [P3A]")
-0.882
>>> recorded_value("DKNAQLKEKIAALKEKIQQLKEENQALEY [P12A]")
0.438
>>> recorded_value("DEIQALEEENAQLEQENAALEEEIAQLEY [P1A]")
-1.69

Please fill in: interaction score reported for DENQALEQEIAQLEQEIAALEQKNAQLKY [P11A] = 0.195
